Where these numbers come from: ChEMBL document CHEMBL1137458

assay: Bioavailability in mouse; format: ADME, organism-based; details: in vivo
measuredQuantity: bioavailability (%)
Give the number; % is assumed, so skip it.

Prompt: Which bioavailability value is on record for O=C(CCc1ccccc1)N[C@H]1CC[C@](O)(c2ccc(O)cn2)CC1 ?
Completion: 27

---

target: Glutamate receptor ionotropic, NMDA 2B (Rattus norvegicus, UniProt Q00960); assay: Displacement of [3H]CP-101606 from NR2B in rat forebrain P2 membrane
Sequence (Q00960 whole entry): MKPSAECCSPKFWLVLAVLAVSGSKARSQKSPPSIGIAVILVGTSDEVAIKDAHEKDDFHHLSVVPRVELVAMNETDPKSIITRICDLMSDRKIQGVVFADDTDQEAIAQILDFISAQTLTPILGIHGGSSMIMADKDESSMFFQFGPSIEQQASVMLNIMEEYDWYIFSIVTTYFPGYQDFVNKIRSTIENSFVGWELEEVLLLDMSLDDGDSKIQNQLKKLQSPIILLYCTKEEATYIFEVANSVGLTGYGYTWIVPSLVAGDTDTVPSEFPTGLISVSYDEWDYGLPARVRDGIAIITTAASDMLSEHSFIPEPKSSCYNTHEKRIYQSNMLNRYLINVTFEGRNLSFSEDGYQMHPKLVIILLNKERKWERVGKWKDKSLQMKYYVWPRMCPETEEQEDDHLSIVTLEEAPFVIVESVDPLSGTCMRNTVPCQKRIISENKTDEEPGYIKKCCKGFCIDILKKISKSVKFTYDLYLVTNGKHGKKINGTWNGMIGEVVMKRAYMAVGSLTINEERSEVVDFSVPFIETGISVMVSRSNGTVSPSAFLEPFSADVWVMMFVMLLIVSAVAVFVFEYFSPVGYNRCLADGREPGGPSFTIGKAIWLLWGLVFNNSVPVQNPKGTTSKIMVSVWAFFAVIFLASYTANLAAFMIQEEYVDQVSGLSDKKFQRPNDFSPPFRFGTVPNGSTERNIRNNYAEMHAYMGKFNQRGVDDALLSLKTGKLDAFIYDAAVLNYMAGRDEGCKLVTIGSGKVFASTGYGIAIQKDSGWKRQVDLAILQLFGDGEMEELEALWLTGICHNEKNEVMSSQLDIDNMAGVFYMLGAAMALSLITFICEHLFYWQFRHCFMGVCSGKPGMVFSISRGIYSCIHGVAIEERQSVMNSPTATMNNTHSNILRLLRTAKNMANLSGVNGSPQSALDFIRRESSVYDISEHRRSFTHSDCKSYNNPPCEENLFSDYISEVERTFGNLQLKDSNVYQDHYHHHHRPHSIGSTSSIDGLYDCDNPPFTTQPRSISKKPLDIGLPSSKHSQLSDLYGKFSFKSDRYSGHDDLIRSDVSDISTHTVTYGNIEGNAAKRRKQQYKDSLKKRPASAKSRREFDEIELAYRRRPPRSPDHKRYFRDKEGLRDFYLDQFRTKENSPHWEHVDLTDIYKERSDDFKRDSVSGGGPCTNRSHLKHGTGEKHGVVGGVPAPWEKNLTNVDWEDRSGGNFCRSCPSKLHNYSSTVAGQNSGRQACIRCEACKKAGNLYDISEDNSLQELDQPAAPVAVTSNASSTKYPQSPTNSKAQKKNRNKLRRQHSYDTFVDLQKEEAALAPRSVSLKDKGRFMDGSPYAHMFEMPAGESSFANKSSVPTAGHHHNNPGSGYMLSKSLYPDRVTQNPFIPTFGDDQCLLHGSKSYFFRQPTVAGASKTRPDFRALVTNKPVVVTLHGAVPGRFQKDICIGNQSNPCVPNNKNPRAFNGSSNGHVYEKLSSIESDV
Please go through the items and note down their IC50.
Give the number; nM is assumed, so skip it.

Prompt: Which IC50 value is on record for O=C(CCc1ccccc1)N[C@H]1CC[C@](O)(c2ccc3nc[nH]c3c2)CC1 ?
Completion: 4960

Prompt: Which IC50 value is on record for Cc1cnc(CCC(=O)N[C@H]2CC[C@H](c3ccc(O)cc3)CC2)s1 ?
Completion: 96

Prompt: Which IC50 value is on record for O=C(CCc1ccccc1)N[C@H]1CC[C@H](c2ccc(O)cc2)CC1 ?
Completion: 30

Prompt: Which IC50 value is on record for O=C(CCc1ccccc1)N[C@H]1CC[C@](O)(c2ccc(O)cc2)CC1 ?
Completion: 19

Prompt: Which IC50 value is on record for Cc1cc([C@]2(O)CC[C@@H](NC(=O)CCc3ccccc3)CC2)ncc1O ?
Completion: 116

Prompt: Which IC50 value is on record for Cc1cc(O)ccc1[C@]1(O)CC[C@@H](NC(=O)CCc2ccccc2)CC1 ?
Completion: 25

Prompt: Which IC50 value is on record for O=C(CCc1ccccn1)N[C@H]1CC[C@H](c2ccc(O)cc2)CC1 ?
Completion: 856

Prompt: Which IC50 value is on record for Cc1cc(O)ccc1[C@H]1CC[C@H](NC(=O)CCc2ccccc2)CC1 ?
Completion: 722
